These data points were gathered from ChEMBL document CHEMBL5120780.

# Test system: MCF7
# Experiment summary: Antiproliferative activity against human MCF7 cells assessed as inhibition of cell growth incubated for 72 hrs by MTT assay
# Type: functional, cell-based
# Assay context: MCF7, 72 h
pIC50: −log10 of the molar value.
Items are presented alongside their recorded pIC50.
Readout name: pIC50

CC(C)n1ncc2c(C(=O)Nc3cccnc3)cccc21 ... < 4.40
CC(C)n1ncc2c(C(=O)NC3CCCC3)cccc21 ... < 4.40
CC(C)n1ncc2c(C(=O)NCc3cn(Cc4ccc(C#N)cc4)nn3)cccc21 ... < 4.40
CC(C)n1ncc2c(C(=O)NCc3cn(-c4ccccc4)nn3)cccc21 ... < 4.40
CC(C)n1ncc2c(C(=O)NCc3cn(-c4ccc([N+](=O)[O-])cc4)nn3)cccc21 ... < 4.40
CC(C)n1ncc2c(C(=O)NCCN(C)C)cccc21 ... < 4.40
CC(C)n1ncc2c(C(=O)NCc3cn(-c4ccc(I)cc4)nn3)cccc21 ... < 4.40
CC(C)n1ncc2c(C(=O)NCc3cn(-c4ccccc4F)nn3)cccc21 ... < 4.40
CC(C)n1ncc2c(C(=O)NCc3cn(Cc4ccc(C(C)(C)C)cc4)nn3)cccc21 ... < 4.40
Cc1ccc(-n2cc(CNC(=O)c3cccc4c3cnn4C(C)C)nn2)c(C)c1 ... < 4.40
CC(C)n1ncc2c(C(=O)NCc3cn(-c4cccc(Br)c4)nn3)cccc21 ... < 4.40
CC(C)n1ncc2c(C(=O)NCCN3CCCCC3)cccc21 ... < 4.40
CC(C)n1ncc2c(C(=O)NCc3cn(Cc4ccccc4)nn3)cccc21 ... 5.04
CC(C)n1ncc2c(C(=O)Nc3ccccc3)cccc21 ... 4.71
COc1ccc(Cn2cc(CNC(=O)c3cccc4c3cnn4C(C)C)nn2)cc1 ... < 4.40
Cc1ccc(-n2cc(CNC(=O)c3cccc4c3cnn4C(C)C)nn2)cc1C ... < 4.40
O=c1[nH]cc(F)c(=O)[nH]1 [FLUOROURACIL] ... 4.82
CC(C)n1ncc2c(C(=O)NCCN3CCN(C)CC3)cccc21 ... < 4.40
CCc1ccc(-n2cc(CNC(=O)c3cccc4c3cnn4C(C)C)nn2)cc1 ... < 4.40
CC(C)n1ncc2c(C(=O)NCCN3CCCC3)cccc21 ... < 4.40
CC(C)n1ncc2c(C(=O)NCc3cn(-c4ccc(C(F)(F)F)cc4)nn3)cccc21 ... < 4.40
Cc1cccc(-n2cc(CNC(=O)c3cccc4c3cnn4C(C)C)nn2)c1 ... < 4.40
